Test: A CellTox Green Cytotoxicity Assay to monitor cytotoxicity in HEK293 cells - 24 hour (AID 1224875); note: nearly all actives have a fitted effect of over 45% in size
Conditions: CellTox Green fluorescence; series mostly up to 76.8 µM
Results filed as inconclusive are left out. Calls of active or inactive are those of the source. Calls come from the whole dose curve; as a rule, active = well fitted activation curve with a large enough effect in the repeat runs; inconclusive = weak or mixed curves; inactive = flat fitted curve, though single readings scatter.
Labels: active, inactive

{"compound": "CCCCCCCC/C=C\\CCCCCCCC(=O)OCC", "class.assignment": "inactive"}
{"compound": "CCOC(=O)C(O)c1ccccc1 (centres undefined)", "class.assignment": "inactive"}
{"compound": "CCOC(=O)C(=O)CCc1ccccc1", "class.assignment": "inactive"}
{"compound": "CCCCC/C=C\\C/C=C\\CCCCCCCC(=O)NC(C)c1ccccc1 (centres undefined)", "class.assignment": "inactive"}
{"compound": "CCCCCCOC(=O)NC(=N)c1ccc(NCc2nc3cc(C(=O)N(CCC(=O)OCC)c4ccccn4)ccc3n2C)cc1", "class.assignment": "inactive"}
{"compound": "CC(=O)c1cccc([N+](=O)[O-])c1", "class.assignment": "inactive"}
{"compound": "O=C1CCC(=O)O1", "class.assignment": "inactive"}
{"compound": "CCCCCC[C@@H](O)C/C=C\\CCCCCCCC(=O)OC", "class.assignment": "inactive"}
{"compound": "CCO[Si](CCCCl)(OCC)OCC", "class.assignment": "inactive"}
{"compound": "CCOc1ccc(N=Nc2ccc(/C=C/c3ccc(N=Nc4ccc(OCC)cc4)cc3S(=O)(=O)O)c(S(=O)(=O)O)c2)cc1", "class.assignment": "inactive"}
{"compound": "CCN(CC)CCOC(=O)C(c1ccccc1)C1CCCCC1 (centres undefined)", "class.assignment": "active"}
{"compound": "COc1cc2c(cc1OC)C(C(C(=O)N(CCc1ccc(OC)c(OC)c1OC)CCc1ccc(OC)c(OC)c1OC)c1ccccc1)=NCC2 (centres undefined)", "class.assignment": "inactive"}
{"compound": "C#C[C@]1(O)CC[C@H]2[C@@H]3CCc4cc(OC5CCCC5)ccc4[C@H]3CC[C@@]21C", "class.assignment": "inactive"}
{"compound": "CCCCCCCCCCCCCCCCOS(=O)(=O)O", "class.assignment": "active"}
